Please respond with reported IC50 for every item in the list.
Biological target: UniProt Q04771
Sequence (Q04771 21-509): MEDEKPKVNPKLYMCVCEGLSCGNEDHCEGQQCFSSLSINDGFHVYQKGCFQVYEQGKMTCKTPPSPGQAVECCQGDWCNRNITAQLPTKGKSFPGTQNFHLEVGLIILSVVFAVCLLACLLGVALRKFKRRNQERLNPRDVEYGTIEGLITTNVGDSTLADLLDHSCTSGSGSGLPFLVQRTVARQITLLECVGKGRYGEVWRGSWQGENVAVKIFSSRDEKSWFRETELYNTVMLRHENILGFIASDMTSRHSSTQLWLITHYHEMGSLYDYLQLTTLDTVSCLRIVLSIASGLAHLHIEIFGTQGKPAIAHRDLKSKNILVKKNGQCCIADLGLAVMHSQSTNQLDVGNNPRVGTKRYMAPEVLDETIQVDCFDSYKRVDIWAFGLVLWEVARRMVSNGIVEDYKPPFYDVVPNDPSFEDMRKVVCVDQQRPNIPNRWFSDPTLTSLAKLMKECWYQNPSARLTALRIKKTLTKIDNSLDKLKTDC
Assay: Activin-Like Kinase 2 (ALK2) enzyme assay
Format: biochemical

Value sought for every listed compound: IC50.
1. CCCS(=O)(=O)Nc1cc(OC)cc(-c2cc(-c3ccc(N4CCNCC4)cc3)cnc2N)c1
2. CCCS(=O)(=O)Nc1cc(-c2cc(-c3ccc(N4CCNCC4)cc3)cnc2N)cc(OC)c1OC
3. COc1cc(NS(=O)(=O)c2ccccc2)cc(-c2cc(-c3ccc(N4CCNCC4)cc3)cnc2N)c1
4. CCCS(=O)(=O)Nc1cc(-c2cc(-c3ccc(S(C)(=O)=O)cc3)cnc2N)ccc1OC
5. COc1cc(-c2cc(-c3ccc(N4CCNCC4)cc3)cnc2N)cc(NS(C)(=O)=O)c1C
6. COc1cc(NS(=O)(=O)CC(C)C)cc(-c2cc(-c3ccc(N4CCNCC4)cc3)cnc2N)c1

1. > 1 nM
2. > 10 nM
3. > 1 nM
4. > 10000 nM
5. > 100 nM
6. > 1 nM

Value sought for every listed compound: IC50.
1. CCCS(=O)(=O)Nc1cc(-c2cc(-c3ccc(N4CCNCC4)cc3)cnc2N)cc(OC)c1C
2. CC(C)Oc1cc(NS(=O)(=O)C(C)C)cc(-c2cc(-c3ccc(N4CCNCC4)cc3)cnc2N)c1
3. COc1cc(-c2cc(-c3ccc(N4CCNCC4)cc3)cnc2N)cc(NS(=O)(=O)c2ccccc2)c1C
4. CCCS(=O)(=O)Nc1cc(OC)cc(-c2cc(-c3cccc(S(C)(=O)=O)c3)cnc2N)c1
5. CCCS(=O)(=O)Nc1cc(-c2cc(-c3ccc(N4CCNCC4)cc3)cnc2N)cc(C)c1OC

["> 100 nM", "> 100000 nM", "> 1000 nM", "> 100 nM", "> 100 nM"]

Value sought for every listed compound: IC50.
1. CCS(=O)(=O)Nc1cc(OC)cc(-c2cc(-c3ccc(N4CCNCC4)cc3)cnc2C)c1
2. CCCS(=O)(=O)Nc1cc(-c2cc(-c3cccc(N4CCNCC4)c3)cnc2N)cc(F)c1OC
3. CCCS(=O)(=O)Nc1cc(-c2cc(-c3ccc(N4CCNCC4)cc3)cnc2N)ccc1OC
4. CCS(=O)(=O)Nc1cc(OC)cc(-c2cc(-c3ccc(N4CCNCC4)cc3)cnc2Cl)c1
5. COc1ccc(-c2cc(-c3ccc(N4CCNCC4)cc3)cnc2N)cc1NS(=O)(=O)C(C)C
6. COc1cc(-c2cc(-c3ccc(N4CCNCC4)cc3)cnc2N)cc(NS(=O)(=O)Cc2ccccc2)c1C
7. CCCS(=O)(=O)Nc1cc(F)cc(-c2cc(-c3ccc(N4CCNCC4)cc3)cnc2N)c1

1: > 10 nM; 2: > 100 nM; 3: > 1000 nM; 4: > 10 nM; 5: > 1000 nM; 6: > 10 nM; 7: > 10 nM

###

Biological target: Recombinant RIPK2 protein (Homo sapiens)
Assay: Receptor Interacting Protein Kinase 2 (RIPK2) enzyme assay (ADP-Glo)
Type: biochemical
Please respond with reported IC50 for every item in the list.

{"smiles representation": "CCCS(=O)(=O)Nc1cc(-c2cc(-c3ccc(S(C)(=O)=O)cc3)cnc2N)ccc1OC", "IC50": "> 100 nM"}

Value sought for every listed molecule: IC50.
1. CCOc1cc(-c2cc(-c3ccc(N4CCNCC4)cc3)cnc2N)cc(NS(=O)(=O)Cc2ccccc2)c1C
2. CCCS(=O)(=O)Nc1cc(-c2cc(-c3ccc(N4CCNCC4)cc3)cnc2N)ccc1C
3. CCCS(=O)(=O)Nc1cc(OC)cc(-c2cc(-c3ccc(N4CCNCC4)cc3)cnc2C)c1

1: > 1000 nM; 2: > 100 nM; 3: > 100 nM

###

Target: Recombinant RIPK2 protein (Homo sapiens, UniProt O43353)
Sequence (O43353 whole entry, species assumed): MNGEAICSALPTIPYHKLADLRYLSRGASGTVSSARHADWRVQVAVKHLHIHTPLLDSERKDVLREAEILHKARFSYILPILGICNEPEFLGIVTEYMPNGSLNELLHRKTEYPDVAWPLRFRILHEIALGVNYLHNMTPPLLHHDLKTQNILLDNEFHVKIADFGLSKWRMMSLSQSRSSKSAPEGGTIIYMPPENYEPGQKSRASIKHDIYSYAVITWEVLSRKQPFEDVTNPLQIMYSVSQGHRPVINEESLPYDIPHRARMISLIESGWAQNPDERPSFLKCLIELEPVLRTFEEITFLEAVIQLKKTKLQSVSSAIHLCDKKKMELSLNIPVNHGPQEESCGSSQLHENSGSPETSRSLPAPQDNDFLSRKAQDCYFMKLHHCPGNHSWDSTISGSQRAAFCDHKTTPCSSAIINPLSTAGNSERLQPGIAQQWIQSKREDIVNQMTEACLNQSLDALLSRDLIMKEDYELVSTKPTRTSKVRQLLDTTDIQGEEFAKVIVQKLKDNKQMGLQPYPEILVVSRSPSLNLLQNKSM
Assay: Receptor Interacting Protein Kinase 2 (RIPK2) enzyme assay (ADP-Glo)
Type: biochemical
Conditions: Conc. 500 nM
parameter measured: inhibition at 0.5 µM (%)
Numbers only, in %.

{"smiles representation": "CCS(=O)(=O)Nc1cc(OC)cc(-c2cc(-c3ccc(N4CCNCC4)cc3)cnc2Cl)c1", "study system": "Recombinant RIPK2 protein (Homo sapiens, UniProt O43353)", "inhibition at 0.5 µM, %": 86}
{"smiles representation": "COc1cc(NS(=O)(=O)C2CC2)cc(-c2cc(-c3ccc(N4CCNCC4)cc3)cnc2C)c1", "study system": "Recombinant RIPK2 protein (Homo sapiens, UniProt O43353)", "inhibition at 0.5 µM, %": 76}
{"smiles representation": "COc1cc(NS(=O)(=O)CC(C)C)cc(-c2cc(-c3ccc(N4CCNCC4)cc3)cnc2C)c1", "study system": "Recombinant RIPK2 protein (Homo sapiens, UniProt O43353)", "inhibition at 0.5 µM, %": 86}

Value sought for every listed compound: inhibition at 0.5 µM.
1. COc1cc(NS(=O)(=O)C(C)C)cc(-c2cc(-c3ccc(N4CCNCC4)cc3)cnc2C)c1
2. CCCS(=O)(=O)Nc1cc(OC)cc(-c2cc(-c3ccc(N4CCNCC4)cc3)cnc2C)c1
3. CCS(=O)(=O)Nc1cc(OC)cc(-c2cc(-c3ccc(N4CCNCC4)cc3)cnc2C)c1

1: 85; 2: 84; 3: 73

###

Biological target: Recombinant RIPK2 protein (Homo sapiens)
Experiment: Receptor Interacting Protein Kinase 2 (RIPK2) enzyme assay (ADP-Glo)
Type: biochemical
parameter measured: IC50

Consider the following illustrative entries.
{"compound": "COc1cc(NS(C)(=O)=O)cc(-c2cc(-c3ccc(N4CCNCC4)cc3)cnc2C)c1 [CSLP2]", "reading": "> 100 nM"}
{"compound": "CCOc1cc(NS(=O)(=O)C(C)C)cc(-c2cc(-c3ccc(N4CCNCC4)cc3)cnc2N)c1 [CSLP22]", "reading": "> 10 nM"}
{"compound": "CCCS(=O)(=O)Nc1cc(-c2cc(-c3ccc(N4CCNCC4)cc3)cnc2N)cc(OC)c1C [CSLP19]", "reading": "> 1000 nM"}
{"compound": "COc1cc(NS(=O)(=O)C(C)C)cc(-c2cc(-c3ccc(N4CCNCC4)cc3)cnc2N)c1 [CSLP8]", "reading": "> 10 nM"}

Value sought for every listed compound: IC50.
1. CCCS(=O)(=O)Nc1cc(-c2cc(-c3ccc(N4CCNCC4)cc3)cnc2N)cc2c1OCCO2 [CSLP52]
2. CCCS(=O)(=O)Nc1cc(-c2cc(-c3ccc(N4CCNCC4)cc3)cnc2N)ccc1OC [CSLP18]
3. COc1cc(NS(=O)(=O)CC(C)C)cc(-c2cc(-c3ccc(N4CCNCC4)cc3)cnc2C)c1 [CSLP17]
4. CCCS(=O)(=O)N1CCOc2ccc(-c3cc(-c4ccc(N5CCNCC5)cc4)cnc3N)cc21 [CSLP47]

["> 100 nM", "> 10 nM", "> 10 nM", "> 10 nM"]

Value sought for every listed compound: IC50.
1. COc1cc(NS(=O)(=O)c2ccccc2)cc(-c2cc(-c3ccc(N4CCNCC4)cc3)cnc2N)c1 [CSLP20]
2. COc1cc(-c2cc(-c3ccc(N4CCNCC4)cc3)cnc2N)cc(NS(=O)(=O)c2ccccc2)c1C [CSLP51]

1. > 1 nM
2. > 1000 nM

###

Molecular target: Recombinant RIPK2 protein (Homo sapiens, UniProt O43353)
Assay: Receptor Interacting Protein Kinase 2 (RIPK2) enzyme assay (ADP-Glo)
Type: biochemical
Please respond with reported IC50 for every item in the list.

Consider the following illustrative entries.
{"smiles representation": "CCCS(=O)(=O)NCc1cc(-c2cc(-c3ccc(N4CCNCC4)cc3)cnc2N)ccc1OC", "IC50": "> 100 nM"}
{"smiles representation": "CCCS(=O)(=O)Nc1cc(-c2cc(-c3cccc(N4CCNCC4)c3)cnc2N)cc(F)c1OC", "IC50": "> 10 nM"}
{"smiles representation": "CCCS(=O)(=O)Nc1cc(-c2cc(-c3ccc(N4CCNCC4)cc3)cnc2N)cc(OCC)c1OC", "IC50": "> 1000 nM"}
{"smiles representation": "CCCS(=O)(=O)Nc1cc(F)cc(-c2cc(-c3ccc(N4CCNCC4)cc3)cnc2N)c1", "IC50": "> 10 nM"}
{"smiles representation": "CCCS(=O)(=O)Nc1cc(-c2cc(-c3ccc(N4CCNCC4)cc3)cnc2N)cc(C)c1C", "IC50": "> 100 nM"}

Value sought for every listed molecule: IC50.
1. CC(C)Oc1cc(NS(=O)(=O)C(C)C)cc(-c2cc(-c3ccc(N4CCNCC4)cc3)cnc2N)c1
2. CCCS(=O)(=O)N1CCOc2c(F)cc(-c3cc(-c4ccc(N5CCNCC5)cc4)cnc3N)cc21
3. CCCS(=O)(=O)Nc1cc(OC)cc(-c2cc(-c3ccc(N4CCNCC4)cc3)cnc2N)c1

1: > 100 nM; 2: > 100 nM; 3: > 10 nM

These entries and their values trace back to patent US11135209B2.
